- Test system: LOX IMVI
- PROTOCOL SUMMARY: NCI tumour cell line growth inhibition, 48 h
The source made the active and inactive calls. Rule as the data show it: active = GI50 up to about 1.1 µM and inactive = higher.
Listing: GI50 of selected compounds

Take a look at these entries with their results.
# COMPOUND, GI50
records = [
    ("C/C(=N/NC(=S)NCCc1ccccn1)c1cnccn1", "9.66 µM (inactive)"),
    ("Cc1cnoc1/N=C1\\C=C(Nc2oncc2C)C(=O)c2ccccc21", "23.3 µM (inactive)"),
    ("Cc1coc2c1CC1(C)C(CCC(O)C1C)C2 (stereo not given)", "> 100 µM (inactive)"),
]

[ask] Which GI50 value belongs to CC1=C(C(=O)Nc2ccccc2C)C(c2ccc(C3C(C(=O)Nc4ccccc4C)=CNC=C3C(=O)Nc3ccccc3C)cc2)C(C(=O)Nc2ccccc2C)=C(C)N1 ?
[reply] 7.08 µM (inactive)
